System: HCT-116
Assay: Inhibition of human HCT116 clonogenicity after 7 days by crystal violet staining by densitometric analysis
Assay type: functional
Exercise: state measured inhibition (INH) for each of the compounds provided.
The figure you give is taken to be in %; do not add the unit.

### Prompt For the compound `COc1cc2occ(-c3ccccc3Cl)c(=O)c2cc1Cl` , what inhibition (INH) is on record?
### Response 5.3

### Prompt For the compound `COc1cc2c(=O)c(-c3ccc(OC(C)=O)cc3)coc2cc1O` , what inhibition (INH) is on record?
### Response 26.7

### Prompt For the compound `COc1cc(OC)c2c(=O)c(-c3ccc(OC)c(OC)c3)coc2c1` , what inhibition (INH) is on record?
### Response 22.3

### Prompt For the compound `COc1cc(OC)c2c(=O)c(-c3ccc(Br)cc3)coc2c1` , what inhibition (INH) is on record?
### Response 13.7
